Biological target: MtInhA (Mycobacterium tuberculosis, UniProt P9WGR1)
Construct: made in house
Sequence (P9WGR1 whole entry, looked up): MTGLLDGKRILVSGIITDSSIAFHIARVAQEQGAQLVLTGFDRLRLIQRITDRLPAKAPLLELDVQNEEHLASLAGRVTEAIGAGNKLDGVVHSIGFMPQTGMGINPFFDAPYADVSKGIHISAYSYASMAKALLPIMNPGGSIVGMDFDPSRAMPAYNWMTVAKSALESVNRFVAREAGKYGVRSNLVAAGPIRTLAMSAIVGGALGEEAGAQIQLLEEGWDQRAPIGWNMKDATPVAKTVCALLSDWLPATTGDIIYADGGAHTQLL
Experiment: MtInhA enzyme inhibition by steady-state kinetics (NADH oxidation at 340 nm)
Format: biochemical
Settings: NADH 60 μM, DD-CoA 45 μM, 25 °C, Pipes pH 7.0; read-out: IC50
Field: label. Allowed values: T (IC50 < 20 µM) or F (IC50 >= 20 µM).

| MOLECULE | CATEGORY_LABEL |
| --- | --- |
| COc1ccc(-c2n[nH]cc2/C=N\NC(=O)c2cc(C)nc3c(C)cccc23)cc1 [Labio_11] | F |
| COc1ccc(CCC(=O)Nc2nn3cc(-c4ccccc4)nc3s2)cc1 [Labio_6] | T |
| CCN(CC)Cc1cc(-c2ccnc3cc(Cl)ccc23)ccc1O [Labio_15] | F |
| Cc1nc([C@H](C)NC(=O)c2ccc3oc(Cc4ccccc4F)nc3c2)cs1 [Labio_2] | T |
| CCCOc1ccc(-c2nnc(NC(=O)Nc3ccccc3C)s2)cc1 [Labio_3] | T |

The values you see were collected from paper PMC5402281.
